Consider the following compounds; for each one, report its pIC50.
- System tested: human EGFR exon 20 insertion NPG (H773_V774insNPG) (Homo sapiens, UniProt P00533, INS772GNP)
- Sequence (P00533 with tags, fused parts or gaps INS772GNP): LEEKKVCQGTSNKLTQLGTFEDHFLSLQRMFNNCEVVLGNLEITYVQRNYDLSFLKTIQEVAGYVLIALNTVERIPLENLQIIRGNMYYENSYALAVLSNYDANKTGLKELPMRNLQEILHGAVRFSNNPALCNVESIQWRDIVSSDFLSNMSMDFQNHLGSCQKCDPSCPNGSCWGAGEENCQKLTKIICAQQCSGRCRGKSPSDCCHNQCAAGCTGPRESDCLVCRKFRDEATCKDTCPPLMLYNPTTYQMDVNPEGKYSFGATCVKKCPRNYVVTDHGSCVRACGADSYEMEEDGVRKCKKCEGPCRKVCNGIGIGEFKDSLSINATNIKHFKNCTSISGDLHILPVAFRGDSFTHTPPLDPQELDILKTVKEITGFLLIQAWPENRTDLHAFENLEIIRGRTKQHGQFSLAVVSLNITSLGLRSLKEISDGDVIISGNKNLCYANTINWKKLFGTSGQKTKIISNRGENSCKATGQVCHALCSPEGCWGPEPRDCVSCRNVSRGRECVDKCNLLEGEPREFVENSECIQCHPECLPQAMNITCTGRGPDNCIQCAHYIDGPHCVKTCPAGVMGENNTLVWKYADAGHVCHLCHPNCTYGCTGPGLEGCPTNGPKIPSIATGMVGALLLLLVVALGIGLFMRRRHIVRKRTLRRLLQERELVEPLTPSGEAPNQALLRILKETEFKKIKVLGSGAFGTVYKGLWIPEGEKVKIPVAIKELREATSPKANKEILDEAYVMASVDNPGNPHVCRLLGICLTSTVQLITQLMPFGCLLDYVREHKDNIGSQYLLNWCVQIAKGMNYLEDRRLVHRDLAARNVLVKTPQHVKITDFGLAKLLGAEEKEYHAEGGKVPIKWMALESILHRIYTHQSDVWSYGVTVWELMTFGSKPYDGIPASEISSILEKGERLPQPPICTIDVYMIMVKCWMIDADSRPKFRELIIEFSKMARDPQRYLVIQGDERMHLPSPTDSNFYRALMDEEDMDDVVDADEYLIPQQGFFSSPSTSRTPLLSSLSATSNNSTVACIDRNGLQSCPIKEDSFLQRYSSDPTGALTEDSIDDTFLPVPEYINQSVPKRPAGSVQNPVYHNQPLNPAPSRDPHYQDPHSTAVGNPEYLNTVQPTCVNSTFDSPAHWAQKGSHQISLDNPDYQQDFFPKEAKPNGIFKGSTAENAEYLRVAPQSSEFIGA
- Experiment description: Ba/F3-EGFR-Exon20-NPG cell anti-proliferative assay (CellTiter 96 MTS, 72 h)
- Test settings: Ba/F3-EGFR-Exon20-NPG cells
pIC50: −log10 of the molar value.

Recorded pIC50, per entry:
Smi	pIC50
C=CC(=O)Nc1cc(Nc2ncc(C(=O)NCCOC)c(-c3cn4c5c(cccc35)CCC4)n2)c(OC)cc1N(C)CCN(C)C	> 7.00
C=CC(=O)Nc1cc(Nc2ncc(-c3cc(C)nn3C)c(-c3cn4c5c(cccc35)CCC4)n2)c(OC)cc1N(C)CCN(C)C	> 7.00

Q: For the compound C=CC(=O)Nc1cc(Nc2nccc(-c3c(N4CC[C@@H](O)C4)n4c5c(cccc35)CCC4)n2)c(OC)cc1N(C)CCN(C)C , give its reported pIC50.
A: > 7.00

---

- System tested: human EGFR exon 20 insertion NPG (H773_V774insNPG) (Homo sapiens, UniProt P00533, INS772GNP)
- Experiment description: Ba/F3-EGFR-Exon20-NPG cell anti-proliferative assay (CellTiter 96 MTS, 72 h)
- Test settings: Ba/F3-EGFR-Exon20-NPG cells
Measured metric: IC50

Recorded IC50, per entry:
Smi	IC50
C=CC(=O)Nc1cc(Nc2ncc(Cl)c(-c3cn4c5c(cccc35)CCC4)n2)c(OC)cc1OCCN1CCCC1	100 to 500 nM
[2H]C([2H])([2H])N(CCN(C)c1cc(OC)c(Nc2ncc(Cl)c(-c3cn4c5c(cccc35)OCC4)n2)cc1NC(=O)C=C)C([2H])([2H])[2H]	< 100 nM
C=CC(=O)Nc1cc(Nc2ncc(OC)c(-c3cn4c5c(cccc35)CCC4)n2)c(OC)cc1N(C)CCN(C)C	< 100 nM

// next item, IC50 requested
Q: For the compound C=CC(=O)Nc1cc(Nc2ncc(C(=O)NC)c(-c3nn4c5c(cccc35)OCC4)n2)c(OC)cc1N(C)CCN(C)C , give its reported IC50.
A: > 1000 nM

---

- System tested: Her2 exon 20 YVMA insertion (A775_G776ins YVMA) (Homo sapiens, UniProt P04626, INS775YVMA)
- Sequence (P04626 with tags, fused parts or gaps INS775YVMA): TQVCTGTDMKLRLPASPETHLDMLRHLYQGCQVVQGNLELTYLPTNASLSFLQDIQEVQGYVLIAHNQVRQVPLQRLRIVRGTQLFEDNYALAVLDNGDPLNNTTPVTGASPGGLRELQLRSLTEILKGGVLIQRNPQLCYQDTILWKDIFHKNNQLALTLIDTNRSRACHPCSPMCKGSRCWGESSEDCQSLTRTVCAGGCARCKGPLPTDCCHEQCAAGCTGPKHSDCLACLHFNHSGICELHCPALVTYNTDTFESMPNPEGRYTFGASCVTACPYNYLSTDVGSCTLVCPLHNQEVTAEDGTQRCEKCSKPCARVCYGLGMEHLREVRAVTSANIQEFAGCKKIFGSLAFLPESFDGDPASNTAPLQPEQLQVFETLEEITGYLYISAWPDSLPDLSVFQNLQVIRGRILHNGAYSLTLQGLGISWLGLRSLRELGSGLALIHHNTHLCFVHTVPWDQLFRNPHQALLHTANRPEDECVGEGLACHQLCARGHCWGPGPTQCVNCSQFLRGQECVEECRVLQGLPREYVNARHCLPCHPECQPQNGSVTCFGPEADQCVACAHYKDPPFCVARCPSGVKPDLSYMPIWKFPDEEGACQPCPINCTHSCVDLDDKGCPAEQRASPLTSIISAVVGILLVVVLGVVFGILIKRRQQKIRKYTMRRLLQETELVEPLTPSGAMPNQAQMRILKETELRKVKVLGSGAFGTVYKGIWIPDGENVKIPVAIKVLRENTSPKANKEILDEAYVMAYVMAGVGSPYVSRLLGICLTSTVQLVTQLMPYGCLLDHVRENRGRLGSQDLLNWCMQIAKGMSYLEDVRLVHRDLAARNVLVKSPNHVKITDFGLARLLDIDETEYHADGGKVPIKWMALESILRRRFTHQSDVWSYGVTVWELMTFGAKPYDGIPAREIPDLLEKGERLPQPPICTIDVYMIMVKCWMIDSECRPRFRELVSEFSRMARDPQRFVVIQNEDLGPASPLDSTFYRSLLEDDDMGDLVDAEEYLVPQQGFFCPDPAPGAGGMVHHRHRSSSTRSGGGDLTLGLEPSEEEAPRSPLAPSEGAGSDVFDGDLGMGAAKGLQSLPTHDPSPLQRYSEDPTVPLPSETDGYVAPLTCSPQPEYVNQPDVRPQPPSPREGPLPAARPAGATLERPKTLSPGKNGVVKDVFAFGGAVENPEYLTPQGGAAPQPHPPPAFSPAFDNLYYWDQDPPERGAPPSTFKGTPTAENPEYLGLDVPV
- Experiment description: Ba/F3-Her2 Exon20 YVMA cell anti-proliferative assay (CellTiter 96 MTS, 72 h)
- Test settings: Ba/F3-Her2 Exon20 YVMA cells
Consider the following molecules; for each one, report its IC50.

Recorded IC50, per entry:
Molecule	Observed measurement
C=CC(=O)Nc1cc(Nc2ncc(F)c(-c3cn4c5c(cccc35)CCC4)n2)c(OC)cc1N(C)CCN(C)C [Example 17]	100 to 500 nM
C=CC(=O)Nc1cc(Nc2ncc(CC)c(-c3cn4c5c(cccc35)CCC4)n2)c(OC)cc1N1CCN(C(C)=O)CC1 [Example 3]	> 1000 nM
C=CC(=O)Nc1cc(Nc2ncc(OCC#N)c(-c3cn4c5c(cccc35)CCC4)n2)c(OC)cc1N(C)CCN(C)C [Example 50]	< 100 nM

Kindly give each listed record's IC50.
1. C=CC(=O)Nc1cc(Nc2ncc(OCCOC)c(-c3cn4c5c(cccc35)CCC4)n2)c(OC)cc1N(C)CCN(C)C [Example 104]
2. [2H]C([2H])([2H])N(CCN(C)c1cc(OC)c(Nc2ncc(Cl)c(-c3cn4c5c(cccc35)OCC4)n2)cc1NC(=O)C=C)C([2H])([2H])[2H] [Example 7]
3. C=CC(=O)Nc1cc(Nc2ncc(C#N)c(-c3cn4c5c(cccc35)CCC4)n2)c(OC)cc1N(C)CCN(C)C(C)C [Example 26]

A:
["100 to 500 nM", "< 100 nM", "< 100 nM"]

Q: For the molecule C=CC(=O)Nc1cc(Nc2ncc(CCC(C)O)c(-c3cn4c5c(cccc35)CCC4)n2)c(OC)cc1N(C)CCN(C)C (stereo not shown) [Example 32] , give its reported IC50.
A: 100 to 500 nM
